System: SF-295 CNS
Experiment Summary: NCI-60 one-dose screen, 48 h (100 = growth as untreated, 0 = no growth, -100 = all killed)
Run Conditions: 10 µM unless noted
Experimental: Cells are grown in 96 well plates and exposed to the test compound for 48 hours. Compounds are tested at a single concentration, which is 10^-5 M for most compounds. The reported endpoint is percent growth (GI% or GIPRCNT), where numbers from 0 - 100% represent growth inhibition, and numbers from -100% - 0 represent cell death. For example, a value of 40 represents 60% growth inhibition. A value of 0 means no net growth occurred over the course of the experiment. […]
This is part of a sample that, as a whole, favours compounds with a hit. Of some 83,000 tested, about 20% had one in any assay.
Use 90% as the dividing line for growth, with the line itself on the TRUE side and lower values as FALSE.

{"columns": ["Molecule", "Group Label"],
 "data": [
  ["CC(C)(C)c1cc(Cl)c(O)c(CNCCO)c1", "TRUE"],
  ["COc1cc(OC)cc(-c2ccc(-c3ccc(C(=N)N)o3)o2)c1", "FALSE"],
  ["FC(F)(F)c1ccc(Cn2cc(CSc3nc4ccccc4s3)nn2)cc1", "TRUE"],
  ["Clc1c(Cl)[n+](Cc2ccc3ccccc3c2)cn1Cc1ccc2ccccc2c1", "FALSE"],
  ["NC(=O)c1c(NC(=O)c2cccs2)sc2c1CCC(=O)C2", "FALSE"],
  ["CCOC(=O)c1cnc2c(N=Nc3ccc(OC)cc3)c(N)nn2c1N", "TRUE"],
  ["CC(C)(C)n1cc(-c2ccnc(NCCCNS(=O)(=O)c3ccc(C(F)(F)F)cc3)c2)c(-c2cccc(F)c2)n1", "TRUE"],
  ["CNC(=O)c1cc(Oc2ccc3c(c2)sc2nc(-c4ccc(OC)cc4)cn23)ccn1", "FALSE"],
  ["C#CC#CC#CC#CC#CC#CC#CC#CCC1OC[C@H](COC(=O)O[C@@H](C(=O)O[C@H]2C[C@@]3(O)[C@@H](OC(=O)c4ccccc4)[C@@H]4[C@]5(OC(C)=O)CO[C@@H]5C[C@H](O)[C@@]4(C)C(=O)[C@H](OC(C)=O)C(=C2C)C3(C)C)[C@@H](NC(=O)c2ccccc2)c2ccccc2)O1 (some centres undefined)", "FALSE"],
  ["Cc1ccc2nc(NC(=O)CSc3nc(-c4ccccc4)c(C#N)c4nnnn34)sc2c1", "TRUE"],
  ["COc1ccc(-c2nn(-c3ccccc3)cc2/C=C/C(=O)NNC(=O)Nc2ccc(C)cc2)cc1", "TRUE"],
  ["CC(=O)c1ccc(Nc2nccc(-c3ccc4ccccc4c3)n2)cc1", "TRUE"],
  ["O=C(NNC(=O)c1nc2cc(F)ccc2n2cccc12)c1cnccn1", "FALSE"],
  ["C=C1C(=O)O[C@H]2[C@H]1CC/C(COC(=O)CSCSCC(=O)OC/C1=C/CC[C@@]3(C)O[C@H]3[C@H]3OC(=O)C(=C)[C@@H]3CC1)=C\\CC[C@@]1(C)O[C@@H]21", "FALSE"],
  ["COC(=O)c1cc(Br)ccc1O", "TRUE"],
  ["COc1ccc2nc(Cl)c(/C=C3\\CC(c4ccccc4)=NN(c4ccccc4)C3=O)cc2c1", "FALSE"],
  ["Clc1ccccc1-c1cnn2cc(-c3ccccc3)cnc12", "FALSE"],
  ["COc1ccc(/C=C/C(=O)c2cc(OC)c(OC)c(OC)c2)cc1OCC(=O)Nc1nc2ccc(OC(F)(F)F)cc2s1", "FALSE"]
]}

----------
System: HOP-62 NSCLC
Experiment Summary: NCI-60 one-dose screen, 48 h (100 = growth as untreated, 0 = no growth, -100 = all killed)
Run Conditions: 10 µM unless noted
This is part of a sample that, as a whole, favours compounds with a hit. Of some 83,000 tested, about 20% had one in any assay.

{"columns": ["Smiles Structure", "Units Text", "growth"],
 "data": [
  ["Clc1ccccc1-c1cnn2cc(-c3ccccc3)cnc12", "%", 86],
  ["O=C1/C(=C/c2ccc(O)c(O)c2)COc2ccc(-c3ccccc3)cc21", "%", 77.5],
  ["C=C1C(=O)O[C@H]2[C@H]1CC/C(COC(=O)/C=C\\C(=O)NCc1ccc(Cn3c(=O)sn(CCCCC)c3=O)cc1)=C\\CC[C@@]1(C)O[C@@H]21", "%", 104],
  ["CN1C(=O)/C(=C2\\SC(=Nc3ccccc3)N(Nc3ccccc3)C2=O)c2ccccc21", "%", 88.1],
  ["C#CCOc1cccc(-c2ncnc3cc(NC(=O)C=C)ccc23)c1", "%", 36.4]
]}

----------
System: CCRF-CEM leukemia
Experiment Summary: NCI-60 one-dose screen, 48 h
Run Conditions: 10 µM unless noted
The panel holds about 83,000 compounds, 20% with a hit somewhere; the sample as a whole holds those more often. Active and inactive are the calls of the source. The calls were made as follows: active = growth percent below 10; inactive = the rest.
Classes used: active, inactive

{"columns": ["Compound", "Group Label"],
 "data": [
  ["COc1ccc(/C=C/C(c2cc(OC)c(OC)c(OC)c2)n2cncn2)cc1 (centres undefined)", "inactive"],
  ["CCc1ccc(CCC(=O)Nc2ncc(Cc3ccccc3)s2)o1", "inactive"],
  ["CC[N+]1(CC)CC[N+]2(CCCC(C)CC2)CC1 (centres undefined)", "inactive"],
  ["CCCCCCCC/C=C\\CCCCCCCCOc1ccc(CC(=O)NCC[N+]2(C)CCOCC2)cc1", "inactive"],
  ["O=C(/C=C/C12c3ccccc3C(c3ccccc31)C1C(=O)NC(=O)C12)c1ccc(Br)cc1 (centres undefined)", "active"],
  ["CCN(CC)Cc1cc(Nc2ccnc3cc(Cl)ccc23)ccc1O", "inactive"],
  ["COc1ccc(Nc2ncccc2/C=C/C(=O)c2cc(OC)c(OC)c(OC)c2)cc1", "active"],
  ["COc1ccc(-c2nc(-c3cn(C)c4ncccc34)cs2)cc1", "active"],
  ["Oc1c(CN2CCCC2)cc(CSCc2ccccc2)c2cccnc12", "active"],
  ["O=C(CCCCCCN1CC(=O)N2[C@H](c3ccc(Cl)cc3)c3[nH]c4ccccc4c3C[C@@H]2C1=O)NO", "inactive"],
  ["C[C@H](C(=O)N(CCc1ccc(Cl)c(Cl)c1)Cc1cncs1)[C@@H]1CC[C@H](C[C@H](C)n2cc(CN3CCC(c4ccc(Cl)cc4)CC3)nn2)O1", "inactive"],
  ["CCOC(=O)C(=CNc1cnc(Nc2ccc(N3CCOCC3)cc2)nc1Oc1ccc(OC)cc1)C(=O)OCC", "inactive"],
  ["N#Cc1c(Nc2ccc(N3CCOCC3)cc2)nc(SCC(=O)c2ccc(Br)cc2)nc1-c1ccccc1", "inactive"],
  ["C=C1C(=O)O[C@H]2[C@H]1CC/C(COC(=O)/C=C/C(=O)OC/C1=C/CC[C@@]3(C)O[C@H]3[C@H]3OC(=O)C(=C)[C@@H]3CC1)=C\\CC[C@@]1(C)O[C@@H]21", "active"],
  ["N#C/C(=C\\c1ccc([N+](=O)[O-])cc1)n1nnc2cc(F)c(F)cc21", "active"],
  ["N=C(N)c1ccc(-c2ccc(-c3ccccc3)s2)cc1", "inactive"],
  ["CNC(=O)c1ccccc1Nc1nc(Nc2cc(OC)c(OC)c(OC)c2)ncc1Br", "inactive"],
  ["Oc1c(CN2CCOCC2)cc(COCc2ccccc2)c2cccnc12", "inactive"],
  ["O=C(NNc1cnccn1)c1nc2cc(F)ccc2n2cccc12", "active"],
  ["COc1ccc2c(c1)CCc1[nH]nc(-c3cc(OC)c(OC)c(OC)c3)c1-2", "active"],
  ["Cc1c(CC(=S)N2CCOCC2)nnn1-c1cccc(C(F)(F)F)c1", "inactive"],
  ["COc1ccc(/C=C/c2c(C(=O)/C=C/c3ccccc3)c(C)nc3ccccc23)cc1", "active"],
  ["CCN(CC)c1ccc(/C=N/NC(=O)Cc2ccc(Nc3ccnc(C(F)(F)F)c3)cc2)c(O)c1", "active"],
  ["Cc1nc2c(=O)nc3s/c(=C\\c4ccco4)c(=O)n3c2nc1C", "inactive"],
  ["C/C=C(/C)n1cnc2c(Nc3ccccn3)nc(Cl)nc21", "inactive"],
  ["O=C(c1c[nH]c2ccccc12)c1n[nH]c(=S)n1-c1cccc(Br)c1", "inactive"],
  ["O=C1/C(=C/c2ccccn2)NC(=S)N1c1ccccc1Cl", "active"],
  ["Cc1cccc(-c2nc(Nc3ccc4ncsc4c3)c3ccccc3n2)n1", "inactive"],
  ["CC(C)N1C(=O)/C(=c2\\sc3n(c2=O)C2C(NN=3)N(C)C(=O)N2C)c2ccccc21 (centres undefined)", "inactive"],
  ["O=C(Nc1ncccc1OCc1ccccc1)NC1CCCCCC1", "inactive"],
  ["Cc1nc2sc(C(=O)Nc3cccc(Br)c3C)c(N)c2cc1C(O)c1ccccc1 (centres undefined)", "inactive"],
  ["CN1C(=O)/C(=C/c2ccc(C(=O)Nc3ncc(Cc4cccc(Cl)c4)s3)cc2)SC1=S", "inactive"],
  ["CCOc1c(OC)cc2c(c1O)C(=O)N[C@@H]1[C@@H](O)[C@@H](O)[C@H](O)C[C@@H]21", "inactive"],
  ["O=C(Nc1cnc(Nc2ccc(N3CCOCC3)nc2)nc1Oc1ccc(C(F)(F)F)cc1)c1ccncc1", "inactive"],
  ["O=C(Nc1ncc(Cc2cc(C(F)(F)F)ccc2Cl)s1)c1cccs1", "inactive"],
  ["COc1ccc(Oc2nc(Nc3ccc(N4CCOCC4)cc3)ncc2NC(=O)Nc2cc(OC)cc(OC)c2)cc1", "inactive"],
  ["N#C/C(=C\\c1cn(Cc2ccccc2)c2ccccc12)C(=O)Nc1ncc(Cc2ccccc2Cl)s1", "inactive"],
  ["Cc1ccc(-c2nc(N3CCNCC3)c3oc(-c4ccc(C)cc4)nc3n2)cc1", "active"],
  ["COc1ccc(-c2nc(/C=C3\\C(=O)N(C)c4ccccc43)c3ccccn23)cc1", "inactive"]
]}
